- Tested Target: native NMDA receptors
- Assay Protocol: Radioligand binding at native NMDA receptors
- Set-up: species or system rat
- Details: rat synaptosomes, [3H]CGP-39653
Observation Type: NMDA pKi with SEM (in brackets)

compound=Cl.O=C(O)c1cc(Br)cc([C@H]2CCN[C@@H]2C(=O)O)c1 tested_target="native NMDA receptors" recorded_value=5.63
compound="Cl.Cl.Nc1cc(C(=O)O)cc([C@H]2CCN[C@@H]2C(=O)O)c1 (racemic) [(±)-5j]" tested_target="native NMDA receptors" recorded_value=4.87
compound="Cc1ccc(S(=O)(=O)Nc2cc(C(=O)O)cc([C@H]3CCN[C@@H]3C(=O)O)c2)cc1.Cl (racemic) [(±)-5k]" tested_target="native NMDA receptors" recorded_value=4.82
compound=Cl.O=C(O)c1cc([C@H]2CCN[C@@H]2C(=O)O)cc(C(=O)O)c1Cl tested_target="native NMDA receptors" recorded_value=6.82

----------
- Tested Target: native KA receptors
- Assay Protocol: Radioligand binding at native KA receptors
- Details: rat synaptosomes, [3H]KA
// boundary case: KA IC50, native iGluRs (synaptosomes) equal to 20 µM maps to n; strictly smaller maps to y

molecule=Cl.O=C(O)c1cc(-c2cncnc2)cc([C@H]2CCN[C@@H]2C(=O)O)c1 tested_target="native KA receptors" discrete_label=n
molecule="Cc1ccc(S(=O)(=O)Nc2cc(C(=O)O)cc([C@H]3CCN[C@@H]3C(=O)O)c2)cc1.Cl (racemic) [(±)-5k]" tested_target="native KA receptors" discrete_label=n
molecule=Cl.O=C(O)c1cc(-c2cccnc2)cc([C@H]2CCN[C@@H]2C(=O)O)c1 tested_target="native KA receptors" discrete_label=n
molecule="Cl.O=C(O)c1cc(NC(=O)c2ccccc2)cc([C@H]2CCN[C@@H]2C(=O)O)c1 (racemic) [(±)-5m]" tested_target="native KA receptors" discrete_label=y
molecule=Cl.O=C(O)c1cc(Br)cc([C@H]2CCN[C@@H]2C(=O)O)c1 tested_target="native KA receptors" discrete_label=y
molecule=Cl.O=C(O)c1cc(-c2cnc(O)nc2)cc([C@H]2CCN[C@@H]2C(=O)O)c1 tested_target="native KA receptors" discrete_label=n
molecule=Cl.O=C(O)c1cc([C@H]2CCN[C@@H]2C(=O)O)cc(Br)c1Cl tested_target="native KA receptors" discrete_label=n
molecule=Cl.O=C(O)c1cc([C@H]2CCN[C@@H]2C(=O)O)cc(C(=O)O)c1Cl tested_target="native KA receptors" discrete_label=n
molecule="Cl.Cl.Nc1cc(C(=O)O)cc([C@H]2CCN[C@@H]2C(=O)O)c1 (racemic) [(±)-5j]" tested_target="native KA receptors" discrete_label=n

----------
The entries below are paired with their reported IC50.
- Tested Target: native AMPA receptors
- Assay Protocol: Radioligand binding at native AMPA receptors
- Details: read-out: AMPA IC50, native iGluRs (synaptosomes); rat synaptosomes, [3H]AMPA
Observation Type: IC50 (µM)

smiles_structure=O=C(O)C(F)(F)F.O=C(O)c1ccc([C@H]2CCN[C@@H]2C(=O)O)cc1 result_unit=µM rel=> recorded_value=100
smiles_structure=Cl.O=C(O)c1cc([C@H]2CCN[C@@H]2C(=O)O)cc(Br)c1Cl result_unit=µM rel=> recorded_value=100
smiles_structure=Cl.O=C(O)c1cc(-c2ccccn2)cc([C@H]2CCN[C@@H]2C(=O)O)c1 result_unit=µM rel== recorded_value=40
smiles_structure=Cl.O=C(O)C[C@@H]1CN[C@H](C(=O)O)[C@H]1c1cccc(C(=O)O)c1 result_unit=µM rel=> recorded_value=100
smiles_structure=Cl.O=C(O)c1cc(-c2cnc(O)nc2)cc([C@H]2CCN[C@@H]2C(=O)O)c1 result_unit=µM rel== recorded_value=13
smiles_structure=Cl.O=C(O)c1cc(C(=O)O)cc([C@H]2CCN[C@@H]2C(=O)O)c1 result_unit=µM rel== recorded_value=36
smiles_structure=Cl.O=C(O)c1cc(-c2cncnc2)cc([C@H]2CCN[C@@H]2C(=O)O)c1 result_unit=µM rel== recorded_value=59

----------
The entries below are paired with their reported pKi.
- Tested Target: GluK3 (Rattus norvegicus, UniProt P42264)
- Sequence (P42264 32-919): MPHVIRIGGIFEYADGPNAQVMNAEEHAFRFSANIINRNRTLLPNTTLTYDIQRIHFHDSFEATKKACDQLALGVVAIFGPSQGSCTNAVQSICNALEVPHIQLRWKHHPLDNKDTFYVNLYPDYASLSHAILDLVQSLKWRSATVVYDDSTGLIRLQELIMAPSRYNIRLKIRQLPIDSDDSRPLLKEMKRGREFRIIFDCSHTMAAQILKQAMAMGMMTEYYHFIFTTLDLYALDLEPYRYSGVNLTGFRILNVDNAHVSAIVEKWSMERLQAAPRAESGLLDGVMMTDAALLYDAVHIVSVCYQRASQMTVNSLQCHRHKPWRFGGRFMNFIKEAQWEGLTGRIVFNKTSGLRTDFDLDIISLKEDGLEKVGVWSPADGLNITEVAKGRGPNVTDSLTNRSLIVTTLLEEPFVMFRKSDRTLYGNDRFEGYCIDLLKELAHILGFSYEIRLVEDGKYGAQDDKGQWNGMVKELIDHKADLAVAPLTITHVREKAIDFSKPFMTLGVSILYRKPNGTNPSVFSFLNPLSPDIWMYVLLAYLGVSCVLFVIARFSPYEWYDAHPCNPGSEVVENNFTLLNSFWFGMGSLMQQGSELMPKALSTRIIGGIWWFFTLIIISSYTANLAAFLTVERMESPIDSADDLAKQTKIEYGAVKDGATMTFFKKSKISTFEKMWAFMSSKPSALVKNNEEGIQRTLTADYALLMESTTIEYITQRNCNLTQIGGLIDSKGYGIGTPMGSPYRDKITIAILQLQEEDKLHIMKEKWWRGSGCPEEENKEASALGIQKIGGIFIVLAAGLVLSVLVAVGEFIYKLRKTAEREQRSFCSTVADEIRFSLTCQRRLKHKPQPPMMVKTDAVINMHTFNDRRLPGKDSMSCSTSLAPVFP
- Assay Protocol: Radioligand binding at recombinant homomeric GluK3
pKi: −log10 of the molar value.
Observation Type: pKi

smiles_structure=Cl.O=C(O)c1cc([C@H]2CCN[C@@H]2C(=O)O)cc(C(=O)O)c1Cl observation_type=pKi recorded_value="< 4.30"
smiles_structure=Cl.O=C(O)C[C@@H]1CN[C@H](C(=O)O)[C@H]1c1cccc(C(=O)O)c1 observation_type=pKi recorded_value="< 4.00"
smiles_structure=Cl.O=C(O)c1cc([C@H]2CCN[C@@H]2C(=O)O)cc(Br)c1Cl observation_type=pKi recorded_value="≤ 4.00"
smiles_structure=O=C(O)c1cccc([C@H]2[C@H](CCO)CN[C@@H]2C(=O)O)c1 observation_type=pKi recorded_value="< 5.00"
smiles_structure=O=C(O)C(F)(F)F.O=C(O)c1ccc([C@H]2CCN[C@@H]2C(=O)O)cc1 observation_type=pKi recorded_value="< 4.00"
smiles_structure=Cl.O=C(O)c1cc(-c2cnn[nH]2)cc([C@H]2CCN[C@@H]2C(=O)O)c1 observation_type=pKi recorded_value="4.30 to 5.00"
smiles_structure=CNCC[C@@H]1CN[C@H](C(=O)O)[C@H]1c1cccc(C(=O)O)c1 observation_type=pKi recorded_value="< 4.00"
smiles_structure=O=C(O)c1ccc([C@H]2CCN[C@@H]2C(=O)O)cc1C(=O)O observation_type=pKi recorded_value="< 4.00"

----------
The entries below are paired with their reported pIC50.
- Tested Target: GluN1/GluN2C NMDA receptor (Rattus norvegicus, UniProt P35439+Q00961)
- Sequence (Q00961 20-1237, other chains not shown): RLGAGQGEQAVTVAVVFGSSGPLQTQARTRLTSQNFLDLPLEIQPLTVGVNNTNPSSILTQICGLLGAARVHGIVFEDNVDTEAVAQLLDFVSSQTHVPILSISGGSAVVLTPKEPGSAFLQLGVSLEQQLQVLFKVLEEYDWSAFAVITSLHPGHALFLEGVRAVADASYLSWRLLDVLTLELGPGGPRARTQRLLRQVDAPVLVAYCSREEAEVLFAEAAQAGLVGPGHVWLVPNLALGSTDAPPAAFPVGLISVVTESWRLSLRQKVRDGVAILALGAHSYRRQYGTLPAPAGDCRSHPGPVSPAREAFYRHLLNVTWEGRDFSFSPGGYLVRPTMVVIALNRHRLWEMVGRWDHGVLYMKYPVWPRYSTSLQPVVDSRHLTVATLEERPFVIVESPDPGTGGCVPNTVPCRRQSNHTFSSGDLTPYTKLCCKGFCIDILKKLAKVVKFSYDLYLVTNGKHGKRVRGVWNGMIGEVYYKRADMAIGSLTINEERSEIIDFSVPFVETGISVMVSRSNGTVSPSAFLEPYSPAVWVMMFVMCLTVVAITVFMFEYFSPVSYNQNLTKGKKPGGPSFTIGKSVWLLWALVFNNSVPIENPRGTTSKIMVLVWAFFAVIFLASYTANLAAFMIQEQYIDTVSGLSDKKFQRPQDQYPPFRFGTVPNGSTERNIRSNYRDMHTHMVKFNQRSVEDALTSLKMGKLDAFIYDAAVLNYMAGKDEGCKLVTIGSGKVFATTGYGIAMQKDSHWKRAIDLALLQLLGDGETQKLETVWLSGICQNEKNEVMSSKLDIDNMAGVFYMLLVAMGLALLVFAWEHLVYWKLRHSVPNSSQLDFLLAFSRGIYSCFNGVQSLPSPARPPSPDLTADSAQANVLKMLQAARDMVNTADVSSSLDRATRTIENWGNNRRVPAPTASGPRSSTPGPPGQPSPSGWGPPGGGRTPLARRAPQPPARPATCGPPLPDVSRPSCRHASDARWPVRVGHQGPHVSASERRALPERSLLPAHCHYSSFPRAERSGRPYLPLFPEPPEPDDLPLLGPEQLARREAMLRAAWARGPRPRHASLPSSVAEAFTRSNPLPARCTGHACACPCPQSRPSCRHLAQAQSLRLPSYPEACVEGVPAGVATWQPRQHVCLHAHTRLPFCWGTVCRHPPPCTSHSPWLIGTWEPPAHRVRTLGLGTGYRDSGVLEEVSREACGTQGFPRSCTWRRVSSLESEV
- Assay Protocol: Two-electrode voltage-clamp recordings, Xenopus oocytes expressing GluN1/GluN2C
pIC50: −log10 of the molar value.
Observation Type: pIC50

molecule="O=C(O)C(F)(F)F.O=C(O)c1ccc([C@H]2CCN[C@@H]2C(=O)O)cc1 [compound 7]" recorded_value=3.71
molecule="Cl.O=C(O)c1cc(-c2cnn[nH]2)cc([C@H]2CCN[C@@H]2C(=O)O)c1 [5d]" recorded_value=5.14
molecule="Cl.O=C(O)c1cc([C@H]2CCN[C@@H]2C(=O)O)cc(C(=O)O)c1Cl [6b]" recorded_value=5.88
molecule="O=C(O)c1ccc([C@H]2CCN[C@@H]2C(=O)O)cc1C(=O)O [4h]" recorded_value=5.29

----------
- Tested Target: GluK1 (Rattus norvegicus)
- Sequence (P22756 31-920 isoform P22756-4 limits assumed): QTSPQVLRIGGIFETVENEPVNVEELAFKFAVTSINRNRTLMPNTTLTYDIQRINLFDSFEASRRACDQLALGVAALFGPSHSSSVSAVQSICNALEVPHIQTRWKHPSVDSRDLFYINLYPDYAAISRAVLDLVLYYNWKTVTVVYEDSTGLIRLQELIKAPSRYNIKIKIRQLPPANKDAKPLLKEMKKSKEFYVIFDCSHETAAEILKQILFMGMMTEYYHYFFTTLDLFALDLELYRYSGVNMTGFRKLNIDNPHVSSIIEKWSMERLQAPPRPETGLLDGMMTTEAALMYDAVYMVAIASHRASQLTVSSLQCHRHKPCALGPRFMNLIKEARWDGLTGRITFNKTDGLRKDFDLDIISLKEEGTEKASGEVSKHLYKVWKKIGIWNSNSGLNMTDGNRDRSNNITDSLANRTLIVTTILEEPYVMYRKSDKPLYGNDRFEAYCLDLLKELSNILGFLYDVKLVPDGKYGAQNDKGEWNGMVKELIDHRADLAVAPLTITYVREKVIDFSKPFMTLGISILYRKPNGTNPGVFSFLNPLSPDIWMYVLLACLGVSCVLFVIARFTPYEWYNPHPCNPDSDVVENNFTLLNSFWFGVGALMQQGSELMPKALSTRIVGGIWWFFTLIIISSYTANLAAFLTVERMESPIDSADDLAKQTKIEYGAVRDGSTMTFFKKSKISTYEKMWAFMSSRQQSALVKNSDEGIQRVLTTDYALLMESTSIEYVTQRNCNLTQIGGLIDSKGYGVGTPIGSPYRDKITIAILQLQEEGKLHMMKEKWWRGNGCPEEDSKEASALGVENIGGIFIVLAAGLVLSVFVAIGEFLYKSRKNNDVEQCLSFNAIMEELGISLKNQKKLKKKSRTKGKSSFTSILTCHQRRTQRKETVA
- Assay Protocol: Radioligand binding at recombinant homomeric GluK1
pKi: −log10 of the molar value.
Observation Type: pKi

molecule="Cl.O=C(O)c1cc([C@H]2CCN[C@@H]2C(=O)O)cc(C(=O)O)c1Cl [6b]" observation_type=pKi rel=≤ recorded_value=4.00
molecule="Cl.O=C(O)C[C@@H]1CN[C@H](C(=O)O)[C@H]1c1cccc(C(=O)O)c1 [9e]" observation_type=pKi rel=< recorded_value=4.00
molecule="Cl.O=C(O)c1cc(-c2cccnc2)cc([C@H]2CCN[C@@H]2C(=O)O)c1 [5f]" observation_type=pKi rel== recorded_value=4.60
molecule="O=C(O)c1cccc([C@H]2[C@H](CCNCc3ccccc3)CN[C@@H]2C(=O)O)c1 [9c]" observation_type=pKi rel== recorded_value=5.53
molecule="Cl.O=C(O)c1cc(-c2cnc(O)nc2)cc([C@H]2CCN[C@@H]2C(=O)O)c1 [5i]" observation_type=pKi rel== recorded_value=4.12
